Molecular target: UniProtKB Q13936
Sequence (Q13936 whole entry): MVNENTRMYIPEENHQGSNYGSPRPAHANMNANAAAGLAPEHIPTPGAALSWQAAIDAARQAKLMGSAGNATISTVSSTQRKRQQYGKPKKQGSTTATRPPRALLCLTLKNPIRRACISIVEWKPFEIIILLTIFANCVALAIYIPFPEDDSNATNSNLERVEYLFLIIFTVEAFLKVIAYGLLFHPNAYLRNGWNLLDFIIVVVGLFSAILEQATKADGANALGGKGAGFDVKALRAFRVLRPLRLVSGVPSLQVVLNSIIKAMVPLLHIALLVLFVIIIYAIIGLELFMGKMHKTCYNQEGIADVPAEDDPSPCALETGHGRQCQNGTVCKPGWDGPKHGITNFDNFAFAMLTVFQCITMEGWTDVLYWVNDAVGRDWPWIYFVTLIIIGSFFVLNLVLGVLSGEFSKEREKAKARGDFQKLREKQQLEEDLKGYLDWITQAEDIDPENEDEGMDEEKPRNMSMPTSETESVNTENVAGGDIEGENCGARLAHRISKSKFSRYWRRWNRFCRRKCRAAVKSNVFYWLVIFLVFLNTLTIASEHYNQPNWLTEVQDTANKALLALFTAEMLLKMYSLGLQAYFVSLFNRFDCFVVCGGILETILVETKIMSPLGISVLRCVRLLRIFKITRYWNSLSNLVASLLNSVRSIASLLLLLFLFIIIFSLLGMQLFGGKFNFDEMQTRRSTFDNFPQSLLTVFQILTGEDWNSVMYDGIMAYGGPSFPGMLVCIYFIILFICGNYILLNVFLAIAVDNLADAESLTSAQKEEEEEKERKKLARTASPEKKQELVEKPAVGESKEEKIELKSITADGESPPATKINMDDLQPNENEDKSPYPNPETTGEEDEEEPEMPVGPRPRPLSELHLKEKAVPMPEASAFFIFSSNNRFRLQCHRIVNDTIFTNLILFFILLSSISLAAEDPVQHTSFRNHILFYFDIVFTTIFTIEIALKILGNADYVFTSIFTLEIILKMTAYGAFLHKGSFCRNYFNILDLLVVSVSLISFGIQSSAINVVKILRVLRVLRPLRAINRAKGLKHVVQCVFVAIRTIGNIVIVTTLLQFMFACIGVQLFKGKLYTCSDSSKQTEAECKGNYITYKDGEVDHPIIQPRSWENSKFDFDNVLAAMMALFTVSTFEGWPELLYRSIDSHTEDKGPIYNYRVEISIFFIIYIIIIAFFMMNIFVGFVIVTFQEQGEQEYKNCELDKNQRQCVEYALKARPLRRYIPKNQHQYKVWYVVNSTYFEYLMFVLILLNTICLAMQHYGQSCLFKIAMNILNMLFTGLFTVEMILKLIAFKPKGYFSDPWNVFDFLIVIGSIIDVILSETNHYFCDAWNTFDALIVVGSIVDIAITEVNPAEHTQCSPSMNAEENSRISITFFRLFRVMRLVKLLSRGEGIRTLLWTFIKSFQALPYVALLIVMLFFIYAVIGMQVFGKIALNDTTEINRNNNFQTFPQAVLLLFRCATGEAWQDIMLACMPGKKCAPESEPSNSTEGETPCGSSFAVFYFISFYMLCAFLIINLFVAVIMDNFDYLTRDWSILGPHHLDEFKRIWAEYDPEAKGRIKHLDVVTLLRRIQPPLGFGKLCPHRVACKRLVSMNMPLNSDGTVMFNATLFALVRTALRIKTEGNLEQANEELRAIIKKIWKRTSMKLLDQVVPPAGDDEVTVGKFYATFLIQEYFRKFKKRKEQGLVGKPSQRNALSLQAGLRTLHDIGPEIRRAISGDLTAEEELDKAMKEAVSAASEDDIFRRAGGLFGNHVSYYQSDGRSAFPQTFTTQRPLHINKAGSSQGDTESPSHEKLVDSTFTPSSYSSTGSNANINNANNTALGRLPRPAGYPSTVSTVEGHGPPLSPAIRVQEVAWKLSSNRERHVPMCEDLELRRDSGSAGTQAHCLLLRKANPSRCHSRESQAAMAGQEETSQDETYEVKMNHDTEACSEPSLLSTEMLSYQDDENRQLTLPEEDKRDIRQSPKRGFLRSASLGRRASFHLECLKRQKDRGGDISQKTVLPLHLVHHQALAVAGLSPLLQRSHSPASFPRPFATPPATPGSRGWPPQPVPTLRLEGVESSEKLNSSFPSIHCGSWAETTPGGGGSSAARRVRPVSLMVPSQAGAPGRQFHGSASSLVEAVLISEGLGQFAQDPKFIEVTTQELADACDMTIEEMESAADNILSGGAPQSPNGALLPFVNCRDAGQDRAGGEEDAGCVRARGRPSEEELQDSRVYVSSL
Sequence (P54289 25-1103 partner): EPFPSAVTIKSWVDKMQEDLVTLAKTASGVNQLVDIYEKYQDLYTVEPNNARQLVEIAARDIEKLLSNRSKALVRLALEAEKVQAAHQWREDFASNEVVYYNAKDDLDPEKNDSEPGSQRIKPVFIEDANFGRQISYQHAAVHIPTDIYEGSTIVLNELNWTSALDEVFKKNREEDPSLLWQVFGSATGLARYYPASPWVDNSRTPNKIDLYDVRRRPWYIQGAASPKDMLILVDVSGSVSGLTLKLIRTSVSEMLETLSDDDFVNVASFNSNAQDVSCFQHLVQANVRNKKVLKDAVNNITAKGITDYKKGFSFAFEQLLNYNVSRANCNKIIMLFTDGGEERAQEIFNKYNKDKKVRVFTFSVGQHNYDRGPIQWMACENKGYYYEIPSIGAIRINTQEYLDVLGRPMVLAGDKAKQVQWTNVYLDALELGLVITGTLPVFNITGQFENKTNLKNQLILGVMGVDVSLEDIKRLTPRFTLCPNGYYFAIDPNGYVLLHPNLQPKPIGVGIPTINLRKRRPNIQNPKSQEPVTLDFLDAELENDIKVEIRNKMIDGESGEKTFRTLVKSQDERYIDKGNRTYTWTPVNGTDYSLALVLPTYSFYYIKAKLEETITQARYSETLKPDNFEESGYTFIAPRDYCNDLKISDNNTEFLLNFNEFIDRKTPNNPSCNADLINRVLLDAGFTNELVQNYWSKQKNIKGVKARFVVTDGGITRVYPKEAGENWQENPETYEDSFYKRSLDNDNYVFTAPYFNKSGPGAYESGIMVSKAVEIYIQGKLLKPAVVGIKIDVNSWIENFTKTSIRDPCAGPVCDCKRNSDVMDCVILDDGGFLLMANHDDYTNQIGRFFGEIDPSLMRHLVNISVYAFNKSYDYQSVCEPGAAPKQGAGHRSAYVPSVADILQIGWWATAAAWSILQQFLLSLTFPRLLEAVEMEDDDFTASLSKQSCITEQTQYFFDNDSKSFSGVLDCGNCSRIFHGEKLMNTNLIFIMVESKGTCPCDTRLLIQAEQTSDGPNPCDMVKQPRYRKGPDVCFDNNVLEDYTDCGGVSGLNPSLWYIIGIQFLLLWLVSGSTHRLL
Sequence (Q08289 whole entry partner): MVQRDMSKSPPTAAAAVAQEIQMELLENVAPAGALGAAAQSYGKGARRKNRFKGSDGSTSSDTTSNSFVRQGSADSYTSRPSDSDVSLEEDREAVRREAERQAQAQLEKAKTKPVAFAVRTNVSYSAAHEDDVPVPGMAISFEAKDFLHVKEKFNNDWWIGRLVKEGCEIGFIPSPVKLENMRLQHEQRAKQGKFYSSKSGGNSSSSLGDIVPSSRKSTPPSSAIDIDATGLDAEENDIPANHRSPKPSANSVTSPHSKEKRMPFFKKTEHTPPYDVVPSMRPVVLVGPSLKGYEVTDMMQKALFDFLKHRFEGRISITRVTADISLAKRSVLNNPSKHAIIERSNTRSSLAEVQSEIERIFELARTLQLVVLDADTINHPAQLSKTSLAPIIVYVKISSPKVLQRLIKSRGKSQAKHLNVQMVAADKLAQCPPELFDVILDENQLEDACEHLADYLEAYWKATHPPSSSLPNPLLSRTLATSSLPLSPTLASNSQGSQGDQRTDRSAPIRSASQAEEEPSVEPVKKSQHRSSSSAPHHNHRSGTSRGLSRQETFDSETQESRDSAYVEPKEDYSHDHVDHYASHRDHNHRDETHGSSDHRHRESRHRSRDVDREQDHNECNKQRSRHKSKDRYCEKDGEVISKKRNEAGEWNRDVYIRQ
Test: FLIPR data, CAv1.2 channel blocking (Table 6)
Format: cell-based
Conditions: closed state, read-out: CAv1.2 IC50 Closed
test.readout: IC50 (µM)
Field format: number, assumed µM, no unit text.

These recorded examples may help you get a feel for the data.
>  <compound>
CC(C)(C[C@H]1C[C@@H](NC(=O)c2ccc(OCC(F)(F)F)nc2)C1)S(=O)(=O)c1cccc(C(F)(F)F)c1

>  <unit.symbol>
µM

>  <reported.value>
4.23

$$$$
>  <compound>
CC(C)([C@H]1C[C@H](Nc2ccnc(C(F)(F)F)n2)C1)S(=O)(=O)c1cccc(OC(F)(F)F)c1

>  <unit.symbol>
µM

>  <reported.value>
6.55

$$$$
>  <compound>
CC(C)(C1CC(CNC(=O)c2ccc(OCC(F)(F)F)nc2)C1)S(=O)(=O)c1cccc(C(F)(F)F)c1 (stereo not shown)

>  <unit.symbol>
µM

>  <reported.value>
4.42

$$$$
>  <compound>
CC(C)([C@H]1C[C@@H](NC(=O)c2ccc(C(F)(F)F)cn2)C1)S(=O)(=O)c1cccc(C(F)(F)F)c1

>  <unit.symbol>
µM

>  <reported.value>
7.52

$$$$

Turning now to a further compound:
Could you share which IC50 value was measured for `CC(C)([C@H]1C[C@@H](NC(=O)c2ccc(F)c(Cl)c2)C1)S(=O)(=O)c1cccc(OC(F)(F)F)c1` ?
4.11
